# System: K-562 leukemia
# experiment_description: NCI tumour cell line growth inhibition, 48 h
Form field: TGI (one value per entry).
measured_attribute: TGI

• Cc1cccc(/C=N/NC(=S)Nc2ccc(Cl)cc2)n1 = > 100 µM
• CCOC(=O)/C=C1/Oc2ccccc2C1(C)O (centres undefined) = > 100 µM
• N#CC1=C(N)OC2=C(CCCc3ccc([N+](=O)[O-])cc32)C1c1ccccc1 (centres undefined) = 13.8 µM
• COc1cc(/C=C/[N+](=O)[O-])c([N+](=O)[O-])cc1OC = > 100 µM
• COC1=C(C)C(=O)N2[C@@H]1[C@H](c1ccccc1)OC21C=CC(=O)C=C1 = > 67 µM
• O=C(c1ccc(Oc2ccccc2)cc1Cl)c1c[nH]c2ncnc(N[C@@H]3CC[C@@H](CO)OC3)c12 = > 36.3 µM
• CCCCCCCCCCCC(=O)N(CCCCCCCCCCC(=O)O)CC(O)C(O)C(OC1OC(CO)C(O)C(O)C1O)C(O)CO (centres undefined) = > 100 µM
• C[Si](C)(C)CNC(=O)OCc1ccccc1 = > 100 µM
• N#Cc1cc(-c2ccnc(Nc3ccc(NC(=O)CCl)cc3)n2)ccc1N1CCCC1 = > 25 µM
• CCOC(=O)c1csc(NC(=O)CN2CCN(c3ccccc3)CC2)n1 = > 100 µM
• CCCOc1ccc2sc(NC(=O)c3cc([N+](=O)[O-])cc([N+](=O)[O-])c3)nc2c1 = > 100 µM
• COc1ccccc1N=NC(C(=O)c1ccccc1)C(=O)c1ccccc1 = > 100 µM
• NCCC1([N+](=O)[O-])C=CN=CC1 (centres undefined) = > 100 µM
• O=C(/C=C/c1c(-c2ccccc2)[nH]c2ccccc12)S(=O)(=O)c1ccccc1 = > 100 µM
• CCOC(=O)CCC(C(=O)OCC)n1nc2ccc(Nc3c(C)[n+]([O-])c4ccc(Cl)cc4[n+]3[O-])cc2n1 (centres undefined) = > 100 µM
• C1C[OH+]CCNCC[OH+]CC[OH+]CCN1.O.[Cl-].[Pt+4] = > 100 µM
• NCCCNC(=O)c1csc(NC(=O)c2csc(NC(=O)CCCN)n2)n1 = > 100 µM
• NC(CCCCO)C(=O)O (centres undefined) = > 100 µM
• O=C1c2cccc3cc4ccccc4c(c23)C(=O)N1CCNCCN1C(=O)c2cccc3cc4ccccc4c(c23)C1=O = 1.47 µM
• COc1cc(C(=O)/C=C/c2c(-c3cccs3)nc3sccn23)cc(OC)c1OC = > 100 µM
• Nc1ccc(Sc2nnc(N)s2)cc1 = > 100 µM
• O=C(O)Cc1cc(F)ccc1C(=O)O = > 100 µM
• C=C1C(O)C2C(=C(CC(C)C)C13CC3)C(=O)C(C)(C)C2O (centres undefined) = > 100 µM
• CCOC(=O)c1ccc(N=C2S/C(=C\C(=S)Nc3ccccc3)N(c3ccccc3)C2=Nc2ccc(C(=O)OCC)cc2)cc1 = > 100 µM
• COc1cc(/C=C/c2cc(/C=C/c3ccc(O)c(OC)c3)n(C(=O)Cc3ccccc3)n2)ccc1O = > 100 µM
• COc1cc(C(=O)Nc2cccc3ccccc23)c(Br)c(OC)c1OC = > 100 µM
• COC(=O)[C@]1(C)CC[C@]2(C)CC[C@]3(C)C4[C@H]5Oc6c(cc7c(c6C)CCC6[C@@]7(C)CC[C@@]7(C)C8[C@](C)(CCC[C@@]8(C)C(=O)OC)CC[C@]67C)O[C@H]5c5c(cc6c(c5C)O[C@@]5(C)C7=CC=C8[C@@](C)(CC[C@@]9(C)[C@@H]%10C[C@](C)(C(=O)OC)CC[C@]%10(C)CC[C@]89C)C7=CC(=O)[C@@]5(O)O6)[C@]4(C)CC[C@@]3(C)C2C1 (some centres undefined) = 11.6 µM
• COc1cc(/C=C/c2cc(/C=C/c3ccc(O)c(OC)c3)n(C(N)=O)n2)ccc1O = > 100 µM
• COc1ccc(P2(=S)OCCOP(=S)(c3ccc(OC)cc3)S2)cc1 (centres undefined) = > 100 µM
• CCOC(=O)C1=C(C#N)S(=O)(=O)c2c(oc(C)c2C)N1 = > 100 µM
• CCOC(=O)C1CSCCSC1 = > 100 µM
• COc1ccc2nccc(/C=C/c3ccc(N(C)C)cc3)c2c1 = > 10 µM
• COc1cccc(-c2nnc3c(-c4ccccc4)nc4ccccc4n23)c1 = > 56.5 µM
• COc1cccc2c1C(=O)c1c(O)c3c(c(O)c1C2=O)C[C@@](O)(C(=O)CO)C[C@@H]3OC1CC(N(C)C)C(O)C(C)O1 (some centres undefined) = 9.41 µM
• NCCCNc1nc2ccccc2c2c(=O)c3cccc(F)c3sc12 = 4.15 µM
• CC(C)(C)c1ccc2c(c1)OP1(Oc3cccc4cccnc34)(O2)Oc2ccc(C(C)(C)C)cc2O1 = 37.5 µM
• COc1ccccc1-c1cc(=O)c2c(C)cc(C)nc2[nH]1 = > 100 µM
• O=C1C(Cl)=C(Cl)C(Cl)(Cl)C(Cl)C1(Cl)Cl (centres undefined) = > 100 µM
• CCOC(=O)c1c(Sc2ccc([N+](=O)[O-])cc2[N+](=O)[O-])nc2c3ccccc3ccn12 = > 100 µM

These measurements were taken from PubChem BioAssay (NCI).
